# maps each entry to its solubility at 24 h
assay_details: FaSSIF and FeSSIF solubility
Type: physicochemical
recorded_conditions: FeSSIF, pH 5.0, 37 °C, read-out: Solubility FeSSIF, pH 5.0
Please state the figure in µM; there is no need to write the unit.

INSERT INTO measurements (smiles_repr, unit_descriptor, quantitative_readout) VALUES
  ('Cc1ncsc1-c1ccc(CNC(=O)[C@@H]2C[C@@H](O)CN2C(=O)[C@@H](NC(=O)CCCCCCCCOc2cnc3c(C4CCN(C(=O)c5ccc(OC(F)(F)F)cc5)CC4)ncnc3c2)C(C)(C)C)cc1', 'µM', 174);

Here's the next entry for you.
Exercise: Return solubility at 24 h for the following compound: "Cc1ncsc1-c1ccc(CNC(=O)[C@@H]2C[C@@H](O)CN2C(=O)[C@@H](NC(=O)CCOCCOCCOc2cnc3c(C4CCN(C(=O)c5ccc(OC(F)(F)F)cc5)CC4)ncnc3c2)C(C)(C)C)cc1"
Key: 349

Numbers sourced from paper PMC11995226.
